Tested on: HepG2 cells
Experiment: HepG2 cytotoxicity
Assay type: cell-based
Settings: Homo sapiens; toxicity against HepG2 cells
REPORTED PROPERTY: pEC50
The read-out pEC50 is expressed as -log10 of concentration in moles per litre.

Below, each entry is followed by its recorded pEC50 result.
{"COMPOUND": "CC(C)Cc1n[nH]c2c1C(c1ccc(F)cc1)N(c1ccc(F)cc1)C2=O (centres unmarked)", "pEC50": 4.30}
{"COMPOUND": "COc1ccc(N2C(=O)c3[nH]nc(CC(C)C)c3C2c2ccc(F)c(F)c2)cc1 (centres unmarked)", "pEC50": 4.30}
{"COMPOUND": "Cc1ccc(CN2C(=O)c3[nH]nc(CC(C)C)c3C2c2ccc(F)cc2)o1 (centres unmarked)", "pEC50": 4.30}
{"COMPOUND": "COc1ccc(N2C(=O)c3[nH]nc(CC(C)C)c3C2C2CCCCC2)cc1 (centres unmarked)", "pEC50": 4.30}
{"COMPOUND": "COc1ccc(CN2C(=O)c3[nH]nc(CC(C)C)c3C2c2ccc(F)cc2)cc1 (centres unmarked)", "pEC50": 4.30}
{"COMPOUND": "COc1cccc(N2C(=O)c3[nH]nc(CC(C)C)c3C2c2ccc(F)cc2)c1 (centres unmarked)", "pEC50": 4.20}
{"COMPOUND": "COc1ccc(N2C(=O)c3[nH]nc(CC(C)C)c3C2c2c(Cl)cccc2Cl)cc1 (centres unmarked)", "pEC50": 5.20}
{"COMPOUND": "C=CCCc1n[nH]c2c1C(c1ccc(F)cc1)N(c1ccc(OC)cc1)C2=O (centres unmarked)", "pEC50": 4.30}

Q: What value of pEC50 has been reported for the following compound? COc1ccc(N2C(=O)c3[nH]nc(CC(C)C)c3C2c2cccc(C(F)(F)F)c2)cc1 (centres unmarked)
Result: 4.30

Q: Would you mind doing CC(C)Cc1n[nH]c2c1C(c1ccc(F)cc1)N(c1ccc3c(c1)OCO3)C2=O (centres unmarked) as well?
Result: 4.20

Q: Would you mind doing CCOc1ccc(N2C(=O)c3[nH]nc(CC(C)C)c3C2c2ccc(F)cc2)cc1 (centres unmarked) as well?
Result: 4.30
